test: Metabolic stability in monkey liver microsomes; type: in vitro ADME; settings: female, monkey, microsomes, pH 7.4, Predicted CL int, iv vivo
Readout Name: CLint scaled at 1 µM (mL/min/kg)
Express your answer in mL/min/kg, writing the number without its unit.

Record C[C@H](Nc1ncnc(N)c1C#N)c1cc2ncc(Cl)n2nc1-c1ccccc1 [Amdizalisib] . Reported CLint scaled at 1 µM: 19.2

----------
Biological target: UniProtKB Q96FL8
Sequence (Q96FL8 1-570): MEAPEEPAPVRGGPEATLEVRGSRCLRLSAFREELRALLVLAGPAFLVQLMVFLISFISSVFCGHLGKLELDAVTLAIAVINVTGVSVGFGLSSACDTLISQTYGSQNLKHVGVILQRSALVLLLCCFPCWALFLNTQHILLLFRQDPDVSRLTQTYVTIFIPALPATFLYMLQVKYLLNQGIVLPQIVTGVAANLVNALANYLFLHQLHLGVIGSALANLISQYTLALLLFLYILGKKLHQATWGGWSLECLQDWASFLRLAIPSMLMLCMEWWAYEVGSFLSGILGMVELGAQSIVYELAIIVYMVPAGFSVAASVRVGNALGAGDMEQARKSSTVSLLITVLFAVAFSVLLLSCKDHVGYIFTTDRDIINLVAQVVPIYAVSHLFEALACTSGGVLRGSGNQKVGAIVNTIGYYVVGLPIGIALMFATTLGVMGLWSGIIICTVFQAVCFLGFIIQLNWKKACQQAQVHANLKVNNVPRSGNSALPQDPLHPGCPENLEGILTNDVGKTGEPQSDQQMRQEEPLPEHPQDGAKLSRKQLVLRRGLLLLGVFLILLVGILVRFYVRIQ
Assay: in vitro
Conditions: human, pH 8
Readout Name: inhibition at 2 min, 0.3 µM
Give the value; after it, write the unit.

Item: `C[C@H](Nc1ncnc(N)c1C#N)c1cc2ncc(Cl)n2nc1-c1ccccc1` | System: UniProtKB Q96FL8 | inhibition at 2 min, 0.3 µM: 2.01%

----------
test: Caco-2 bidirectional transport permeability; assay type: in vitro ADME, human; conditions: human
Readout Name: Papp B→A at 60 min, 60 µM (×10⁻⁶ cm/s)
// return numeric value only (unit: ×10⁻⁶ cm/s, not printed)

The recorded Papp B→A at 60 min, 60 µM for entry C[C@H](Nc1ncnc(N)c1C#N)c1cc2ncc(Cl)n2nc1-c1ccccc1 [Amdizalisib] equals 47.9

----------
Target: OATP1B1 (Homo sapiens, UniProt Q9Y6L6)
Sequence (Q9Y6L6 1-691): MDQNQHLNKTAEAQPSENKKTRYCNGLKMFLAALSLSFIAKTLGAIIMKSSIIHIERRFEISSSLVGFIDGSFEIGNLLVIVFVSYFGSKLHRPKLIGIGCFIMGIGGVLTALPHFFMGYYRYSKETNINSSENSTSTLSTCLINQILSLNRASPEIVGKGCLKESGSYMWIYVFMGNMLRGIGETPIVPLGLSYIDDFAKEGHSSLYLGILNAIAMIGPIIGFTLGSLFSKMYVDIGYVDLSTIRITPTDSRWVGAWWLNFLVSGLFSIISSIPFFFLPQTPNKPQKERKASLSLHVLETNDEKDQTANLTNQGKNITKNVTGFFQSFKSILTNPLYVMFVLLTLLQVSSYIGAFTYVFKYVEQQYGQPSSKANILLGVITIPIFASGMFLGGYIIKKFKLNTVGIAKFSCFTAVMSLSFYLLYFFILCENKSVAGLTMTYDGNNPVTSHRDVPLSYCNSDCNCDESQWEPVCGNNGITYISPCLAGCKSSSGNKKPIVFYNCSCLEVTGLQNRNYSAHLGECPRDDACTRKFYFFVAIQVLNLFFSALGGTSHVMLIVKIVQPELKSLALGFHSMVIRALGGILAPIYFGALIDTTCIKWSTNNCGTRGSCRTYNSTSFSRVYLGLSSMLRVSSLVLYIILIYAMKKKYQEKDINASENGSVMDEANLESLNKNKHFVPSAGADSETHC
Test: in vitro
Settings: human, pH 7.4
Readout Name: inhibition at 2 min, 10 µM (%)
Please give a number only; it is taken to be in %.

inhibition at 2 min, 10 µM measured on `C[C@H](Nc1ncnc(N)c1C#N)c1cc2ncc(Cl)n2nc1-c1ccccc1` = 67.3
